Tested on: foxtail, giant (giant foxtail, Setaria faberi)
Assay: Test C postemergence, visual plant response rating
Format: in vivo
Conditions: Test C, postemergence, 1000 g ai/ha
Answer each item with its documented Foxtail, Giant plant response rating (0 to 100 scale).
Form field (numeric): enter value without unit.

**Q:** Enter reported Foxtail, Giant plant response rating (0 to 100 scale) observed with foxtail, giant (giant foxtail, Setaria faberi) for C#CCO/N=C(/c1c(O)cnn(C)c1=O)c1cccc2ccccc12
**A:** 60

**Q:** Any idea what Foxtail, Giant plant response rating (0 to 100 scale) came out for CC(C)O/N=C(\c1c(O)cnn(C)c1=O)c1cccc2ccccc12 on foxtail, giant (giant foxtail, Setaria faberi)?
**A:** 20

**Q:** Return Foxtail, Giant plant response rating (0 to 100 scale) measured with foxtail, giant (giant foxtail, Setaria faberi) given this molecule: CO/N=C(\c1c(O)cnn(C)c1=O)c1cccc2ccccc12
**A:** 40

**Q:** GET /values?readout=Foxtail, Giant plant response rating (0 to 100 scale)&system=foxtail, giant (giant foxtail, Setaria faberi)&item= CCO/N=C(\c1c(O)cnn(C)c1=O)c1cccc2ccccc12
**A:** 50

----------
Tested on: corn (Zea mays)
Experiment: Test C postemergence, visual plant response rating
Type: in vivo
Settings: Test C, postemergence, 125 g ai/ha
Record form. Attribute: Corn plant response rating (0 to 100 scale). Fill in for each entry.
Enter a number only.

**Q:** Which Corn plant response rating (0 to 100 scale) reading was recorded for the molecule CO/N=C(\c1cccc(Br)c1)c1c(O)c(C)nn(C)c1=O [Compound 239] ?
**A:** 0

**Q:** If you can, please state the reported Corn plant response rating (0 to 100 scale) value of Cc1nn(C)c(=O)c(/C(=N\OC(C)C)c2cccc3cc(Cl)ccc23)c1O [Compound 241] .
**A:** 0

**Q:** So what's the measured Corn plant response rating (0 to 100 scale) for this one? Cc1nn(C)c(=O)c(/C(=N/OCCO)c2cccc3cc(Cl)ccc23)c1O [Compound 240]
**A:** 0

**Q:** Item CON=C(c1cc(Cl)cc(Cl)c1Cl)c1c(O)c(C)nn(C)c1=O [Compound 214] has what recorded Corn plant response rating (0 to 100 scale)?
**A:** 40

**Q:** What value of measured Corn plant response rating (0 to 100 scale) is listed for C#CCO/N=C(/c1cccc(/C=C\Cl)c1)c1c(O)c(C)nn(C)c1=O [Compound 261] ?
**A:** 10

----------
Test system: pigweed (Amaranthus retroflexus)
Experiment: Test A preemergence, visual plant response rating
Format: in vivo
Details: 500 g ai/ha Preemergence; approx. 10 days
Could you please mark met for values of Pigweed plant response rating (0 to 100 scale) below 50 and not met for values at or above it?

**Q:** Is 50 strictly greater than the compound's reported Pigweed plant response rating (0 to 100 scale)? compound: CO/N=C(\c1cc(C)ccc1Cl)c1c(O)c(C)nn(C)c1=O
**A:** met

**Q:** Given CON=C(c1cccc(C)c1F)c1c(O)c(C)nn(C)c1=O , is recorded Pigweed plant response rating (0 to 100 scale) strictly lower than 50?
**A:** met

**Q:** Is it true that Pigweed plant response rating (0 to 100 scale) reported for Cc1nn(C)c(=O)c(/C(=N/OC(C)C)c2ccc(F)c3ccccc23)c1O is less than 50?
**A:** not met

**Q:** Input CO/N=C(/c1c(O)c(C)nn(C)c1=O)c1ccc(F)c2ccccc12 ; condition: Pigweed plant response rating (0 to 100 scale) strictly below 50. Does it hold?
**A:** not met

**Q:** Answer whether the compound CON=C(c1ccccc1Cl)c1c(O)c(C)nn(C)c1=O (stereo in doubt) has Pigweed plant response rating (0 to 100 scale) strictly less than 50
**A:** met

**Q:** is_below(Pigweed plant response rating (0 to 100 scale), 50) for CO/N=C(\c1c(C)cccc1F)c1c(O)c(C)nn(C)c1=O ?
**A:** met

**Q:** Quick check: does C#CCO/N=C(/c1c(O)c(C)nn(C)c1=O)c1ccc(F)c2ccccc12 have Pigweed plant response rating (0 to 100 scale) under 50?
**A:** not met

**Q:** Problem: For the compound CON=C(c1c(O)c(C)nn(C)c1=O)c1cccc2ccoc12 , is Pigweed plant response rating (0 to 100 scale) under 50?
**A:** met

Data credit: patent US20210045385A1
